Source: ChEMBL document CHEMBL5212743

Target: Histone-lysine N-methyltransferase SETDB1 (Homo sapiens, UniProt Q15047)
Experiment: Selectivity interaction (Methyltransferase panel (radioactive enzyme assay)) EUB0000216b SETDB1
Measured Metric: IC50

INPUT: I would be grateful if you could share the reported IC50 for CC(C)N(CCCNC(=O)Nc1ccc(C(C)(C)C)cc1)C[C@H]1O[C@@H](n2cc(Br)c3c(N)ncnc32)[C@H](O)[C@@H]1O .
OUTPUT: > 100 µM

----------
Target: Histone-lysine N-methyltransferase KMT5B (Homo sapiens, UniProt Q4FZB7)
Sequence (Q4FZB7 whole entry): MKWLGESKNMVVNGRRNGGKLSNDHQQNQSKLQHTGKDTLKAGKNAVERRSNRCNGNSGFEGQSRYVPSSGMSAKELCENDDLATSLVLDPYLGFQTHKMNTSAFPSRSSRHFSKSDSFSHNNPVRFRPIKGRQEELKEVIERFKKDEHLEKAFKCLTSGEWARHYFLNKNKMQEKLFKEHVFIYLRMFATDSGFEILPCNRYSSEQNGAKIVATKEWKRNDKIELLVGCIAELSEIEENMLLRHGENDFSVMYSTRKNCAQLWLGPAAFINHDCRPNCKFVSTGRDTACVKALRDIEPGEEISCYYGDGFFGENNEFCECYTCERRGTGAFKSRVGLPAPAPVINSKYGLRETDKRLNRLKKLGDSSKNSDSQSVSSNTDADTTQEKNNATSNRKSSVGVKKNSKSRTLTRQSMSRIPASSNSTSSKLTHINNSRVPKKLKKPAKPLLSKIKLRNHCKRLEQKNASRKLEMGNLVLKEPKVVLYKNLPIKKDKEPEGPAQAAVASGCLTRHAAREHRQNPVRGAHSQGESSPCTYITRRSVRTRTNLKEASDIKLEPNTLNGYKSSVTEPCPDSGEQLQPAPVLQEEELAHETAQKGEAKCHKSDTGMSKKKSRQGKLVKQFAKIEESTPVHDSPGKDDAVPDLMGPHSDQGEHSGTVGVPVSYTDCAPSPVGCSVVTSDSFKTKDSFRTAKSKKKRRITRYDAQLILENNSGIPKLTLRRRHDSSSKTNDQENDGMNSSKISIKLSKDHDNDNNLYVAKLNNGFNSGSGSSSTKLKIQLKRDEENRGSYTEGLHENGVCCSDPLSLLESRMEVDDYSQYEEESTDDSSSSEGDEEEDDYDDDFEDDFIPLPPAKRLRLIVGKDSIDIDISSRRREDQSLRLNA
Assay: Selectivity interaction (HMT panel) EUB0000194b SUV420H1
pIC50: −log10 of the molar value.
Measured Metric: pIC50

INPUT: I would be grateful if you could share the reported pIC50 for COc1cc2c(NC3CCN(C(C)C)CC3)nc(N3CCC(F)(F)CC3)nc2cc1OCCCN1CCCC1 .
OUTPUT: < 5.00
